- ASSAY NOTES: PK in rats after i.v. C118P
- Format: in vivo, SD rats
- CONDITIONS USED: both sexes, SD, rat, in vivo, iv; rats, plasma, i.v. C118P 5 mg/kg, n = 6; read-out: CL (converted)
VALUE TYPE: clearance (mL/min/kg)
Supply the numeric figure in mL/min/kg, leaving out any unit text.

In: Entry COc1cc(OC)cc(-c2nc[nH]c2-c2ccc(OC)c(OP(=O)([O-])[O-])c2)c1.[Na+].[Na+] [C118P] : reported clearance = ?
Out: 14.7

----------
- ASSAY NOTES: PK in rats after i.v. C118P
- Type: in vivo, SD rats
- CONDITIONS USED: both sexes, Sprague-Dawley, plasma, iv; rat, in vivo, compared with extrapolated CLH; read-out: Observed CL
VALUE TYPE: clearance (mL/min/kg)
Supply the numeric figure in mL/min/kg, leaving out any unit text.

In: Entry COc1cc(OC)cc(-c2nc[nH]c2-c2ccc(OC)c(O)c2)c1 : reported clearance = ?
Out: 62.9

----------
- ASSAY NOTES: Plasma protein binding by ultrafiltration;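 further: fu expressed in percent not as a fraction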
- Format: in vitro ADME, beagle dogs
- CONDITIONS USED: beagle, pooled plasma; dog plasma, C118 2000 ng/mL; read-out: fu (fraction unbound)
VALUE TYPE: fraction unbound at 1 h, 2000 ng/mL

In: Entry COc1cc(OC)cc(-c2nc[nH]c2-c2ccc(OC)c(O)c2)c1 : reported fraction unbound at 1 h, 2000 ng/mL = ?
Out: 0.062

----------
- ASSAY NOTES: Plasma protein binding by ultrafiltration;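 further: fu expressed in percent not as a fraction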
- Assay type: in vitro ADME, Sprague-Dawley rats
- CONDITIONS USED: Sprague-Dawley, pooled plasma; rat plasma, C118 2000 ng/mL; read-out: fu (fraction unbound)
- Method: Both C118P and C118 were stable in the plasma with EDTA as anticoagulant. The non-specific binding to the ultrafilter membrane was negligible. The extent of plasma protein binding was reported as a fraction unbound (fu, %) value which was calculated using the formula fu = PF/TC × 100%, where TC is test compound (C118P or C118) concentration in sample before ultrafiltration, and PF is the test compound concentration in the ultrafiltrate (Table 1). […]
VALUE TYPE: fraction unbound at 1 h, 2000 ng/mL
The reply should be a number, written without any unit.

In: Entry COc1cc(OC)cc(-c2nc[nH]c2-c2ccc(OC)c(O)c2)c1 [C118] : reported fraction unbound at 1 h, 2000 ng/mL = ?
Out: 0.065

----------
- ASSAY NOTES: PK in dogs after i.v. C118P
- Assay type: in vivo, beagle dogs
- CONDITIONS USED: both sexes, beagle, dog, in vivo; dogs, plasma, i.v. C118P 1 mg/kg, n = 6; read-out: C2min
VALUE TYPE: concentration at 2 min (ng/mL)
Supply the numeric figure in ng/mL, leaving out any unit text.

In: Entry COc1cc(OC)cc(-c2nc[nH]c2-c2ccc(OC)c(OP(=O)([O-])[O-])c2)c1.[Na+].[Na+] [C118P] : reported concentration at 2 min = ?
Out: 12300

----------
- ASSAY NOTES: PK in dogs after i.v. C118P
- Type: in vivo, beagle dogs
- CONDITIONS USED: both sexes, beagle, dog, in vivo, iv; dogs, plasma, i.v. C118P 6 mg/kg, n = 6
VALUE TYPE: AUC(0-inf) (ng·h/mL)
Supply the numeric figure in ng·h/mL, leaving out any unit text.

In: Entry COc1cc(OC)cc(-c2nc[nH]c2-c2ccc(OC)c(OP(=O)([O-])[O-])c2)c1.[Na+].[Na+] [C118P] : reported AUC(0-inf) = ?
Out: 8530

Where do the numbers come from? From paper PMC6278385.
